Catalogue of compounds with associated TGI
system: PC-3 prostate; experiment: NCI tumour cell line growth inhibition, 48 h

{"columns": ["compound", "target entity", "unit abbreviation", "comparator", "TGI"],
 "data": [
  ["COc1cc(-c2nn(-c3cccc(NC(=O)CCNc4ccc(N5CCOCC5)cc4)c3)cc2-c2ccncc2)ccc1Cl", "PC-3 prostate", "µM", "=", 31.4],
  ["O=[N+]([O-])/C(Cl)=C(/C(Cl)=C(Cl)Cl)N1CCOCC1", "PC-3 prostate", "µM", "=", 19.3],
  ["CC(C)(C)O/N=C/c1cc(NC(=S)c2ccsc2)ccc1Cl", "PC-3 prostate", "µM", "=", 26.1],
  ["COC(=O)C(=O)Nc1cc2c3c(c1)Oc1cccc4c1C3(C)c1c(cccc1O2)O4", "PC-3 prostate", "µM", ">", 100],
  ["CCOP(=O)(O)C(Nc1ccc(N=Nc2ccccc2)cc1)c1cccc(C(Nc2ccc(N=Nc3ccccc3)cc2)P(=O)(O)OCC)c1 (stereo not given)", "PC-3 prostate", "µM", "=", 67.5]
]}
